A collection of compounds and their measured TGI
Tested on: RXF 393 renal
Assay: NCI tumour cell line growth inhibition, 48 h
Assay readout: TGI (µM)

COC(=O)C1=C(O)C(C(=O)OC)[C@]2(O)[C@H](C(=O)OC)[C@H]1C[C@@H](c1ccc([N+](=O)[O-])cc1)[C@H]2C(=O)OC (stereo not given in full) : 32.4
Nc1ncnc2c1ncn2Cc1cccc(CCl)c1 : 18.8
CCOc1cc(-c2ccc[nH]2)[nH]c1/C=C1\N=C(C)C(C(=O)OC)=C1C : 0.0881
COc1cc([N+](=O)[O-])c2ncccc2c1[N+](=O)[O-] : 17.5

----------
# Lookup of reported TGI keyed by entry
Test system: UACC-62 melanoma
Assay: NCI tumour cell line growth inhibition, 48 h
Assay readout: TGI

CCOP(=O)(OCC)C(C)(CC)NC(=O)C(C(F)(F)F)C(F)(F)F (stereo not drawn) : > 100 µM
CN1CCN(c2nc(-c3ccncc3)nc3sc4c(c23)CCCCCC4)CC1 : 24 µM
COc1ccc2nc3ccccc3c(NCCCCN(C)CCCl)c2c1 : 0.305 µM
CC1(C)OC2C(COS(N)(=O)=O)SC(n3cnc4cncnc43)C2O1 (stereo not drawn) : > 100 µM
CCOC(=O)C1COc2cc(-c3cc(=O)c4ccccc4o3)ccc2O1 (stereo not drawn) : > 100 µM
O=C1CN(/N=C/c2ccc(-c3ccc(F)cc3)o2)C(=O)N1 : > 100 µM
COC(=O)CC(C(C(C)=O)C(=O)OCc1ccccc1)N1C(=O)OCC1c1ccccc1 (stereo not drawn) : > 100 µM
COc1nc(NC2OC(COC(C)=O)C(OC(C)=O)C(OC(C)=O)C2OC(C)=O)c(-c2csc(N)n2)c(=O)n1C (stereo not drawn) : > 100 µM

The values you see were collected from PubChem BioAssay (NCI).
